Reference source for all entries: ChEMBL document CHEMBL1201862

tested on: NCI/ADR-RES; test: NCI tumour cell line growth inhibition, 48 h
Activity calls are given as the source filed them. No stated cut-off is given here; in the data, active = GI50 up to about 1.1 µM and inactive = higher.
TEST_READOUT: GI50

COMPOUND	TEST_READOUT	REPORTED_MEASUREMENT
O=C(/C=C(\O)c1cc(-c2ccccc2)n(-c2ccccc2)n1)c1ccccc1	GI50	5.38 µM (inactive)
COc1ccc(/N=C2\C(=O)Nc3ccc(Br)cc32)cc1	GI50	18.7 µM (inactive)
CC(CN1NC12CCCC2)N1NC12CCCC2 (centres undefined)	GI50	> 100 µM (inactive)
COc1ccc2c(c1)OCC1Cc3ccccc3OC21 (centres undefined)	GI50	> 100 µM (inactive)
C#CCN(CC#C)C(=O)C(=O)c1c[nH]c2ccc(OC)cc12	GI50	21.8 µM (inactive)

Need GI50 for each of these compounds.
1. Cc1ccccc1/N=N/c1cc(C)c(/N=N/c2c(O)ccc3ccccc23)cc1C
2. Cc1csc2nc(-c3ccc([N+](=O)[O-])cc3)c(/C=N/N=C(N)N)n12
3. C#CCn1c(=O)c(C)cn(/C(=C\C(=O)OCC)C(=O)OCC)c1=O
4. CC1(C)CC[C@]2(C)CC=C3[C@]4(C)CC[C@H]5C(C)(C)C(=O)CC[C@]5(C)[C@H]4CC[C@@]3(C)[C@H]2C1

Marked response:
["> 100 µM (inactive)", "6.89 µM (inactive)", "3.86 µM (inactive)", "> 100 µM (inactive)"]
